# systemUnderTest: IKZF1 (dCK*-IKZF1 fusion in HEK293FT) (UniProt Q13422)
# Sequence (Q13422 whole entry, looked up, the tested form may be a part): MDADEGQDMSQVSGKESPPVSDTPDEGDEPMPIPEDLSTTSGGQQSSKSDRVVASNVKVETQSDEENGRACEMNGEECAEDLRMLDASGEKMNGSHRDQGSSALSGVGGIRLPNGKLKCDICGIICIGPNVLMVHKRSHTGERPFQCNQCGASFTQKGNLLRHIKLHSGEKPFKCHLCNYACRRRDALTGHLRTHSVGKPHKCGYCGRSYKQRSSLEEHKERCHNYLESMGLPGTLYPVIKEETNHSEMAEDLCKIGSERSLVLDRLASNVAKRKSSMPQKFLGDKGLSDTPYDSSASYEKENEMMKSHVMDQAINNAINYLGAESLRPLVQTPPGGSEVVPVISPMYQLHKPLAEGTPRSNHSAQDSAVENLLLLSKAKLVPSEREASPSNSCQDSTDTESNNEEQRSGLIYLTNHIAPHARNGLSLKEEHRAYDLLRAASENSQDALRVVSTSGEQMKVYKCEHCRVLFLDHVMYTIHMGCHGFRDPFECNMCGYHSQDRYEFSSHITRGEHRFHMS
# assaySummary: inhibition of IKZF1 HTRF signal (DMSO = 0%, pomalidomide 10 uM = 100%); higher = lower IKZF1 protein level
# experimentalContext: compound concentration: 5 uM, overnight (~20 h)
Structures can show the parent of a compound that is named as a salt.
endpointLabel: inhibition of IKZF1 HTRF signal (%)

>>> reportedvalue("C[n+]1c2cc(N)ccc2cc2ccc(N)cc21.Nc1ccc2cc3ccc(N)cc3nc2c1 [Acriflavine hydrochloride]")
6.76
>>> reportedvalue("CC(=O)Oc1ccccc1C(=O)Nc1ncc([N+](=O)[O-])s1")
22.3
>>> reportedvalue("C[C@@H]1CC(=O)NN=C1c1ccc(NN=C(C#N)C#N)cc1")
-27.1
>>> reportedvalue("COc1cccc2c(O)c3c(O)c4c(c(O)c3c(O)c12)=C(O[C@H]1C[C@H](N)[C@H](O)[C@H](C)O1)C[C@](O)(C(C)=O)C=4 [Daunorubicin HCl]")
56.3

----------
# Tested on: HEK293FT dCK*-IKZF1
# assaySummary: relative growth recovery (pomalidomide 10 uM = 100%, DMSO = 0%); higher = more growth rescue (IKZF1 fusion degradation)
# experimentalContext: compound concentration: 5 uM; AraC concentration: 0.3 uM; overnight pretreatment + 4 days AraC
Structures can show the parent of a compound that is named as a salt.
Below, each entry is listed with its recorded relative growth recovery.
endpointLabel: relative growth recovery (%)

>>> reportedvalue("CC[N+](C)(CC)CCC[n+]1c(-c2ccccc2)c2cc(N)ccc2c2ccc(N)cc21 [propidium-iodide]")
-3.16
>>> reportedvalue("CSc1ccc2c(c1)C(N1CCN(C)CC1)Cc1ccccc1S2 (configuration not stated)")
-1.56
>>> reportedvalue("CN(C)CCC=C1c2ccccc2CCc2ccccc21 [Amitriptyline HCl]")
-1.42
>>> reportedvalue("Cn1c(NCCN(CCO)CCCc2ccc([N+](=O)[O-])cc2)cc(=O)n(C)c1=O")
3.56
>>> reportedvalue("C=C1C(=O)O[C@H]2[C@H]1CC/C(C)=C\\CC[C@@]1(C)O[C@@H]21 [Parthenolide ((-)-Parthenolide)]")
-11.6
>>> reportedvalue("COC(=O)C1=C(C)NC(C)=C(C(=O)OCC(C)C)C1c1ccccc1[N+](=O)[O-] (configuration not stated)")
-3.19
>>> reportedvalue("CO[C@H]1/C=C/O[C@@]2(C)Oc3c(C)c(O)c4c(O)c(c(C=NN5CCN(C)CC5)c(O)c4c3C2=O)NC(=O)C(C)=CC=CC(C)[C@@H](O)[C@@H](C)[C@H](O)[C@H](C)[C@@H](OC(C)=O)[C@H]1C (some centres not stated) [Rifampin (Rifampicin)]")
-2.73
>>> reportedvalue("Cc1ccccc1N=Nc1ccc(N=Nc2c(O)ccc3ccccc23)c(C)c1")
-0.495
>>> reportedvalue("OC1(c2ccc(Cl)c(C(F)(F)F)c2)CCN(CCCC(c2ccc(F)cc2)c2ccc(F)cc2)CC1")
-5.21
>>> reportedvalue("CCNC(=O)Nc1ccc(-c2nc3c(c(N4CCOC[C@@H]4C)n2)CCN(C2COC2)C3)cc1")
-12.3
>>> reportedvalue("O=C1NCN(c2ccccc2)C12CCN(CCCC(c1ccc(F)cc1)c1ccc(F)cc1)CC2")
-0.815
>>> reportedvalue("O=C(Nc1cccc(Cl)c1)Nc1ncc(CCNc2ncnc3ccsc23)s1 [SNS-314 methanesulfonate]")
-6.71
>>> reportedvalue("Cc1cccc(CCN2CCC(C(=O)c3ccc(NS(C)(=O)=O)cc3)CC2)n1")
-0.45
>>> reportedvalue("CC[C@@]1(O)C(=O)OCc2c1cc1n(c2=O)Cc2c-1nc1cc(F)c(C)c3c1c2[C@@H](N)CC3.CS(=O)(=O)O [Exatecan Mesylate]")
-15.4
>>> reportedvalue("NC1CC(O[C@H]2C[C@@]([C@@](C)=O)(O)CC3=C2C(O)=C5C(C(C4=CC=CC(OC)=C4C5=O)=O)=C3O)OC(C)C1O (some centres not stated)")
-14.9
>>> reportedvalue("CN(C)c1ccc2nc3ccc(N(C)C)cc3[s+]c2c1")
-11.5
>>> reportedvalue("O=C1CCC(N2C(=O)c3ccccc3C2=O)C(=O)N1 (configuration not stated) [thalidomide]")
1.01

----------
# systemUnderTest: IKZF1 (dCK*-IKZF1 fusion in HEK293FT) (UniProt Q13422)
# assaySummary: inhibition of IKZF1 HTRF signal (DMSO = 0%, pomalidomide 10 uM = 100%); higher = lower IKZF1 protein level
# experimentalContext: compound concentration: 5 uM, overnight (~20 h)
Threshold rule: inhibition of IKZF1 HTRF signal greater than or equal to -20% is true (1); below that, false (0).

>>> cat("CCCCCCCCCCCCCCCC[N+](C)(C)C")
"true (1)"
>>> cat("Oc1cc(O)c2cc(O)c(-c3cc(O)c(O)c(O)c3)[o+]c2c1")
"true (1)"
>>> cat("O=c1[nH]nc(Sc2ncc([N+](=O)[O-])s2)n1-c1ccc2c(c1)OCCO2")
"false (0)"
>>> cat("CCCCC(=O)OCC(=O)[C@]1(O)Cc2c(O)c3c(c(O)c2[C@@H](O[C@H]2C[C@H](NC(=O)C(F)(F)F)[C@H](O)[C@H](C)O2)C1)C(=O)c1c(OC)cccc1C3=O")
"false (0)"
>>> cat("CCN(CC)CCCC(C)Nc1ccnc2cc(Cl)ccc12 (stereo not given)")
"false (0)"
>>> cat("CN(C)c1ccc(/C=C2\\C(=O)Nc3ccccc32)cc1")
"false (0)"
>>> cat("COC(=O)Nc1nc2cc(C(=O)c3ccc(F)cc3)ccc2[nH]1")
"true (1)"
>>> cat("CCCCCCCCCCCC1=C(O)C(=O)C=C(O)C1=O")
"false (0)"
>>> cat("O=C(CCCCCCC(=O)NO)NO")
"false (0)"
>>> cat("CN(C)CCCN1c2ccccc2Sc2ccc(C(F)(F)F)cc21")
"false (0)"

----------
# Tested on: HEK293FT dCK*-IKZF1
# assaySummary: relative growth recovery (pomalidomide 10 uM = 100%, DMSO = 0%); higher = more growth rescue (IKZF1 fusion degradation)
# experimentalContext: compound concentration: 5 uM; AraC concentration: 0.3 uM; overnight pretreatment + 4 days AraC
Where a name gives a salt, the structure may show the parent alone.
relative growth recovery values for the compounds below.
endpointLabel: relative growth recovery (%)

>>> reportedvalue("C=C1CCC2[C@](C)(CO)[C@H](O)CC[C@@]2(C)[C@@H]1C/C=C1/C(=O)OC[C@H]1O (stereo partly drawn) [Andrographolide]")
-5.34
>>> reportedvalue("Nc1ccc(S(=O)(=O)Nc2cnc3ccccc3n2)cc1")
-1.83
>>> reportedvalue("O=C1CN(/N=C/c2ccc(-c3ccc([N+](=O)[O-])cc3)o2)C(=O)N1 [dantrolene]")
4.57
>>> reportedvalue("CCOC(=O)Nc1ccc2c(c1)N(C(=O)CN(C)C)c1ccccc1CC2 [Tiracizine]")
-0.145
>>> reportedvalue("c1ccc(C(NCc2cccnc2)(c2ccccc2)c2ccccc2)cc1")
-0.7
>>> reportedvalue("CC(C)(N)c1nc(-c2ccc(OC(F)(F)F)cc2)c[nH]1")
-3.6
>>> reportedvalue("CC1(S(=O)(=O)[O-])CC(=O)c2ccccc2C1=O (stereo not drawn) [menadione-bisulfite]")
-7.9
>>> reportedvalue("C=C1/C(=C\\C=C2/CCC[C@]3(C)[C@@H]([C@H](C)CCCC(C)(C)O)CC[C@@H]23)C[C@@H](O)C[C@@H]1O [Calcitriol (Rocaltrol)]")
4.81
>>> reportedvalue("OCCN1CCN(CCCN2c3ccccc3Sc3ccc(C(F)(F)F)cc32)CC1 [Fluphenazine HCl]")
5.51
>>> reportedvalue("Nc1ncnc2c1ncn2[C@@H]1O[C@H](COP(=O)(O)OP(=O)(O)OP(=O)(O)OP(=O)(O)OC[C@H]2O[C@@H](n3cnc4c(N)ncnc43)C(O)C2O)C(O)C1O (stereo partly drawn) [P1,P4-DI(adenosine-5')tetraphosphate ammonium salt]")
1.01
>>> reportedvalue("Oc1c(Cl)cc(Cl)c2cccnc12")
-0.1
>>> reportedvalue("CC1(C)C(/C=C/C=C/C=C/C=C2/N(CCCCS(=O)(=O)[O-])c3ccc4ccccc4c3C2(C)C)=[N+](CCCCS(=O)(=O)[O-])c2ccc3ccccc3c21 [Cardiogreen]")
0.4
>>> reportedvalue("CCc1nc(N)nc(N)c1-c1ccc(Cl)cc1")
-0.245
>>> reportedvalue("O=C1Nc2ccc(Cl)cc2[C@@](C#CC2CC2)(C(F)(F)F)O1 [Efavirenz]")
0.45
>>> reportedvalue("CCCCNC(=O)NS(=O)(=O)c1ccc(C)cc1")
-3.39
>>> reportedvalue("S=C=Nc1ccc(N=C=S)cc1")
-1.61
>>> reportedvalue("O=c1[nH]c(=O)n([C@H]2C[C@H](O)[C@@H](CO)O2)cc1F [Floxuridine]")
-9.7
>>> reportedvalue("Clc1ccc(C(Cn2ccnc2)OCc2csc3c(Cl)cccc23)c(Cl)c1 (stereo not drawn) [Sertaconazole]")
1.54

The reported numbers originate from the supplement of paper PMC12340641.
